Reported CC50 is given for each of the following compounds.
- protocol_text: Cytotoxicity against mock-infected human MT4 cells by MTT assay
- Format: cell-based
readout_label: CC50

[
  {
    "compound": "CC(COc1ccccc1)OC(=S)Nc1ccc(Cl)cc1 (racemic)",
    "value_measured": "> 100 µM"
  },
  {
    "compound": "S=C(Nc1ccccc1)OCC1(c2ccccc2)CC1",
    "value_measured": "51 µM"
  },
  {
    "compound": "Cc1cccc(CCOC(=S)Nc2ccc([N+](=O)[O-])cc2)c1",
    "value_measured": "96 µM"
  },
  {
    "compound": "O=[N+]([O-])c1ccc(NC(=S)OCCc2ccc(Br)cc2)cc1",
    "value_measured": "> 100 µM"
  },
  {
    "compound": "O=[N+]([O-])c1ccc(NC(=S)OCCOc2ccc(Br)cc2)cc1",
    "value_measured": "> 100 µM"
  },
  {
    "compound": "S=C(Nc1ccccc1)OCCSc1ccccc1",
    "value_measured": "> 100 µM"
  },
  {
    "compound": "COc1cccc(CCOC(=S)Nc2ccc(Cl)cc2)c1",
    "value_measured": "94 µM"
  },
  {
    "compound": "CC(COC(=S)Nc1ccc([N+](=O)[O-])cc1)c1ccccc1 (racemic)",
    "value_measured": "> 100 µM"
  },
  {
    "compound": "CCC(OC(=S)Nc1ccccc1)c1ccccc1 (racemic)",
    "value_measured": "> 100 µM"
  },
  {
    "compound": "Cc1ccc(CCOC(=S)Nc2ccc([N+](=O)[O-])cc2)cc1",
    "value_measured": "> 100 µM"
  },
  {
    "compound": "COc1ccccc1CCOC(=S)Nc1ccc([N+](=O)[O-])cc1",
    "value_measured": "> 100 µM"
  }
]
